Values from patent EP2058315A1

So I've got a bunch of compounds here, and I need their IC50 values.
# Tgt: Aurora-2 (Homo sapiens, UniProt O14965)
# Sequence (O14965 whole entry): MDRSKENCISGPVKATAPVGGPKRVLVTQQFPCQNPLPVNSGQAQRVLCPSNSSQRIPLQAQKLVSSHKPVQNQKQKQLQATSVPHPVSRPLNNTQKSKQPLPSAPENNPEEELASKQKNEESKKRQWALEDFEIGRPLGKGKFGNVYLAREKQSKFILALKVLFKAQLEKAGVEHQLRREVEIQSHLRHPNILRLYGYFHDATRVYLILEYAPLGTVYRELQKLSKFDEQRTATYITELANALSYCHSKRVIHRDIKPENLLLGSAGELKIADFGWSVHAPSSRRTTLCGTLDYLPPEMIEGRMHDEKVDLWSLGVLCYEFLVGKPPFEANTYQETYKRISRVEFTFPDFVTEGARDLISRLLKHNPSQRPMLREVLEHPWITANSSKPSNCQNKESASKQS
# Experiment Summary: Inhibition assay of Aurora-2 activity (SPA technology)
# Format: biochemical
# Condition Info: screened according to the methods of the pharmacology section; read-out: IC50values for Aur2 inhibition

Cc1ccc(C(=O)Nc2n[nH]c3cc(C(=O)NC(C)(C)c4ccccc4)oc23)o1 [Compound 51]
< 0.01 µM
CC(C)NCc1ccc(C(=O)Nc2n[nH]c3cc(C(=O)NC(C)(C)c4ccccc4)oc23)cc1 [Compound 70]
< 0.01 µM

Below are 2 compounds. Give each one its IC50.
1. CC(C)(NC(=O)c1cc2[nH]nc(NC(=O)c3ccc(CN4CCCCC4)cc3)c2o1)c1ccccc1 [Compound 59]
2. CC(C)(NC(=O)c1cc2[nH]nc(NC(=O)c3cccs3)c2o1)c1ccccc1 [Compound 1]

1: < 0.01 µM; 2: < 0.01 µM

Below are 7 compounds. Give each one its IC50.
1. O=C(Nc1n[nH]c2cc(C(=O)NC3(c4ccccc4)CCCC3)oc12)c1ccco1 [Compound 40]
2. Cn1cccc1C(=O)Nc1n[nH]c2cc(C(=O)NC(C)(C)c3ccccc3)oc12 [Compound 33]
3. Cc1ccc(C(=O)Nc2n[nH]c3cc(C(=O)NC(C)(C)c4ccccc4)oc23)s1 [Compound 45]
4. CC(C)(NC(=O)c1cc2[nH]nc(NC(=O)c3cscn3)c2o1)c1ccccc1 [Compound 64]
5. CC(C)(NC(=O)c1cc2[nH]nc(NC(=O)c3ccc(OCCN4CCCC4)cc3)c2o1)c1ccccc1 [Compound 68]
6. CN1CCN(c2ccc(C(=O)Nc3n[nH]c4cc(C(=O)NC(C)(C)c5ccccc5)oc34)cc2)CC1 [Compound 10]
7. CC(C)(NC(=O)c1cc2[nH]nc(NC(=O)c3ccsc3)c2o1)c1ccccc1 [Compound 63]

1. < 0.01 µM
2. < 0.01 µM
3. < 0.01 µM
4. < 0.01 µM
5. < 0.01 µM
6. < 0.01 µM
7. < 0.01 µM

Below are 4 compounds. Give each one its IC50.
1. Cn1ccc(C(=O)Nc2n[nH]c3cc(C(=O)NC(C)(C)c4ccccc4)oc23)n1 [Compound 56]
2. CC(C)(NC(=O)c1cc2[nH]nc(NC(=O)c3ccc(OCCN4CCCC4)cc3)c2o1)c1ccccc1F [Compound 69]
3. CC(C)(NC(=O)c1cc2[nH]nc(NC(=O)c3ccc(CN4CCOCC4)cc3)c2o1)c1ccccc1 [Compound 32]
4. Cc1csc(C(=O)Nc2n[nH]c3cc(C(=O)NC(C)(C)c4ccccc4)oc23)c1 [Compound 48]

1: < 0.01 µM; 2: < 0.01 µM; 3: < 0.01 µM; 4: < 0.01 µM

Any idea what IC50 came out for O=C(Nc1n[nH]c2cc(C(=O)NC3(c4ccccc4)CC3)oc12)c1ccc(N2CCOCC2)cc1 [Compound 7] on Aurora-2 (Homo sapiens, UniProt O14965)?
< 0.01 µM
